- PROCEDURE_DETAILS: solvent given as SMILES
- EXPERIMENTAL_SETUP: in C1CCOC1
REPORTED_ENDPOINT: emission maximum (nm)
One number for each entry, in nm.

Report emission maximum for each item below.
1. CC1=N/C(=C\c2ccc(N(C)C)cc2)C(=O)N1C
2. COc1ccc2c(c1)c1ccccc1n2-c1nc2ccccc2nc1-n1c2ccccc2c2cc(OC)ccc21
3. C(=C\c1nc2ccccc2[nH]1)/c1ccc(/C=C/c2nc3ccccc3[nH]2)cc1
4. N#Cc1c(N2CCCCC2)cc(-c2ccc3ccc4cccc5ccc2c3c45)c2c1C(=O)c1ccccc1-2
5. Cc1csc2[n+]1[B-](F)(F)OC(c1ccc(N(C)C)cc1)=N2
6. Cc1ccc(-c2ccc(-c3ccc(-c4ccc(C)cc4)cc3/C(=C(/c3ccccc3)c3cc(-c4ccc(C)cc4)ccc3-c3ccc(-c4ccc(C)cc4)cc3)c3ccccc3)cc2)cc1
7. O=P(c1ccccc1)(c1ccccc1)n1c2ccccc2c2cc(-n3c4ccccc4c4cc(-n5c6ccccc6c6cc(-n7c8ccccc8c8ccccc87)ccc65)ccc43)ccc21

1. 452
2. 588.86
3. 428
4. 473
5. 453
6. 498
7. 378

Record COc1ccc(C2=Cc3ccccc3P2(=O)c2ccccc2)cc1 (stereo not drawn) . Reported emission maximum: 443
